Molecular target: L-lactate dehydrogenase (Plasmodium falciparum (isolate CDC / Honduras)) (UniProt Q27743)
Sequence (Q27743 whole entry, looked up): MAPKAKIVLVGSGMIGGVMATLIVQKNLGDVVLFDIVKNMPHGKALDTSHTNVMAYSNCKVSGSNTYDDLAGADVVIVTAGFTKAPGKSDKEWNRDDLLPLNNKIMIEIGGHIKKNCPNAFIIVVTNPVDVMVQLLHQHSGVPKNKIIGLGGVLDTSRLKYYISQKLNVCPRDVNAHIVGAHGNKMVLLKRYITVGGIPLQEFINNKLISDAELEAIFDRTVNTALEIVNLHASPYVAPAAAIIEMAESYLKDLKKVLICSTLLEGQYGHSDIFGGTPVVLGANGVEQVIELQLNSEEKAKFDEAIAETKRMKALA
Assay: PfLDH activity inhibition – cell lysate, 3D7 strain, counter-screen for P. falciparum growth inhibition project (AID 2304);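 further: 0% = vehicle and 100% = reference inhibitor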
Conditions: P. falciparum 3D7 crude extract, LDH APAD/NBT absorbance; at 2 µM; active compounds read high
Readout Label: inhibition (%)

> print(dat)
                                    molecule  reported.result
 1  O=C(Nc1cc(F)cc(F)c1)N[C@H]1CCN(CCCCCNC(=O)[C@@H]2C[C@H]2c2ccc(Cl)c(Cl)c2)C1               -3
 2           O=c1c2c([nH]c3cc(Cl)ccc13)CCCC2                2
 3  COc1cc(C2CCN(CCCCNC(=O)c3ccc(NC(=O)c4ccc(Cl)c(Cl)c4)cc3)CC2)ccc1OC(C)C               -5
 4  CC(C)(C)OC(=O)n1cc(C2CCN(CCCC34CCCc5cccc(c53)NC4=O)CC2)c2ccncc21 (stereo not given)               -5
 5  CC(=O)Nc1nc(C(=O)Nc2cccc(-c3cccc(-c4nc5ccc(F)cc5[nH]4)c3)c2)cs1               -2
 6  Cc1c(C(=O)[C@@H]2C[C@H]2CN2CCC(N3CCCC3)CC2)sc2ccccc12                0
 7  COc1ccc(Nc2nccc(N3CCC(NC(=O)c4cccc(NC(C)=O)c4)C3)n2)cc1 (stereo not given)               -5
 8  CCCCCCCN1CC[C@@H](CCCc2ccnc3ccc(OCC4CCCNC4)cc23)[C@@H](CC)C1 (stereo not given in full)               -1
 9  O=C(C=Cc1ccc(Cl)c(Cl)c1)NCCCCCN1CCCC(CCCNC(=O)/C=C/c2ccccc2)C1 (stereo not given)               -4
10  N#Cc1cccc(Nc2nccc(Nc3ccc(Oc4ccccc4)cc3)n2)c1               -6
11  O=C1COc2ccc(S(=O)(=O)N3CCC[C@@H]3CCN3CCC(c4c[nH]c5cnccc45)CC3)cc2N1                1
12  CC(CCON1C(N)=NC(N)=NC1(C)C)c1ccc(Cl)cc1 (stereo not given)               -5
13  FC(F)(F)c1ccc(CSc2ccc3nnc(-c4ccccn4)n3n2)cc1               -1
14  O=C(Nc1ccc(CN2CCOCC2)cc1)c1ccc(-c2ccc(Cl)cc2)o1               -6
15  CS(=O)(=O)CCNCc1ccc(-c2ccc3c(Nc4ccc(Cl)cc4F)ccnc3c2)o1               -3
16       Cc1ccccc1Nc1nc(Nc2ccccc2)c2ccccc2n1               -8
17  Brc1cc(Br)c2c(c1)C(NCCCNC1CCNc3c(Br)cc(Br)cc31)CCN2 (stereo not given)               -1
18  CCc1cc2c3c(N)nc(N)nc3ccc2n1C(C)CC (stereo not given)                0
19  Cc1ccc(C)c2sc(N(CCCn3ccnc3)C(=O)C=Cc3cccs3)nc12                0
20  CCn1c(C2CCN(CCC3CCN(C(=O)/C=C/c4ccc(Cl)c(Cl)c4)CC3)CC2)nc2ccccc21                2

----------
Biological target: L-lactate dehydrogenase (Plasmodium falciparum (isolate CDC / Honduras))
Assay: PfLDH activity inhibition – cell lysate, 3D7 strain, counter-screen for P. falciparum growth inhibition project (AID 2304);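 further: 0% = vehicle and 100% = reference inhibitor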
Settings: P. falciparum 3D7 crude extract, LDH APAD/NBT absorbance; at 2 µM; active compounds read high
Readout Label: inhibition (%)

> print(dat)
                                    molecule  reported.result
 1  NS(=O)(=O)c1ccccc1Nc1nc(Nc2ccc(N3CCOCC3)cc2)nc2c1CCC2               -1
 2  Fc1ccc(-c2cc3ncnc(N4CCN(CCN5CCCC5)CC4)c3s2)cc1               -1
 3  CC(C(=O)Nc1ccc(Br)cc1Br)N1CCN(C(=O)c2ccco2)CC1 (stereo not drawn)               -3
 4  COc1ccc([C@@]23Oc4cc(OC)cc(OC)c4[C@]2(O)C2(CC3c3ccccc3)SCCCS2)cc1 (stereo partly drawn)              -10
 5  O=C(NCCc1ccc(F)cc1)c1ccc(N2CCN(c3ccncc3)CC2)nc1               -4
 6  COc1ccc(-c2cccc(NC(=O)c3cccc(C#N)c3)c2)cc1CN1CCNCC1                0
 7  O=C(Nc1cccc(-c2ccc(CN3CCCC3)cc2)c1)c1ccc(Cl)cc1               -1
 8       Oc1cccc(CCNCCCCCCNCCc2ccc(Cl)cc2)c1               -1
 9  O=C(Nc1cccc(C(F)(F)F)c1)N1CCOC(CCN2CCC(c3ccccc3)CC2)(c2ccc(Cl)c(Cl)c2)C1 (stereo not drawn)                8
10  COc1ccc(CC(=O)NC(CCN2CCC3(CCc4ccccc43)CC2)c2ccc(Cl)c(Cl)c2)cc1 (stereo not drawn)               -1
11  O=C(Cc1ccccc1)NC(c1ccco1)c1cc(Cl)c2cccnc2c1O (stereo not drawn)               -1
12  CC1CCN(CC[C@H]2CCCN2S(=O)(=O)c2cccc(NC(=O)c3cc4ccccc4s3)c2)CC1                2
13  CCOc1cc(CC)ccc1C1CCN(CCN2CCC(CNC(=O)c3ccc(-c4ccc(C#N)cc4)cc3)CC2)CC1                5
14  CNS(=O)(=O)c1ccc2c(c1)nc(C1CCN(CC3CCC(NC(=O)/C=C/c4ccc(Cl)c(Cl)c4)CC3)CC1)n2C (stereo not drawn)               -2
15  CN(C)C(=O)CCCn1c(CNCCCNc2cc(=O)c3ccccc3[nH]2)cc2c(Cl)cc(Cl)cc21               -1
16  CCC(CC)(Cc1ccccc1)NC(=O)[C@H](CC1CCCCC1)Nc1ccc(C#N)c2ccccc12               -5
17  FC(F)(F)c1cccc(Nc2nc(-n3ccnc3)nc(-n3ccnc3)n2)c1                1
18  Cc1cc(CNCCCCCCNCc2ccc(-c3ccccc3)cc2)ccc1O               -3
19  COc1cc(C(=O)N2CCN(C(C)C)CC2)ccc1CN(C)CCCCN1CCN(c2cccc(Cl)c2Cl)CC1                6
20  O=C(NCc1ccc2c(c1)OCO2)c1nn(CCN2CCC(N3CCCC3)CC2)cc1-c1ccc(Cl)c(Cl)c1               -2
21  CN1CCN(c2ccc(Nc3nc(N)c4ccn(C5CCC5)c4n3)cc2)CC1                2
22  c1ccc2c(NCCCCCCCCNc3ccnc4ccccc34)ccnc2c1               -1
23  O=C1NC(C(=O)Nc2ccccc2)C(c2ccccc2)S1 (stereo not drawn)               -1
24  Cc1ccc2[nH]c(-c3ccc(C(=O)NCc4ccc(Cl)c(Cl)c4)cc3)nc2c1C                5
25  COc1c(C2CCN(CCCCNC(=O)c3ccc(-c4ccc(C(=O)C(F)(F)F)cc4)cc3)CC2)ccc2c1CCCC2               -4
26  CCOCc1cn(CC(=O)c2ccc(-c3ccccc3)cc2)c(C)nc1=N                5
27  O=C(Nc1cccc(-c2cccc(-c3nc4ccccc4[nH]3)c2)c1)Nc1ccc(Cl)c(Cl)c1               -3
28  CCN(CC)CCN(Cc1ccc(-c2ccc(C(F)(F)F)cc2)cc1)C(=O)Cn1c(SCc2ccc(F)c(F)c2F)nc(=O)c2c1CCC2               -4
29  CSc1nnc2n(Cc3ccccc3)c(=O)c3c(n12)-c1ccccc1CC31CCCCC1                1
30  FC(F)(F)c1ccc2nc(-c3cccc(-c4cccc(CN5CCN(c6ccncc6)CC5)c4)c3)[nH]c2c1                3
31  CCCCn1c(-c2ccco2)nc2c(c(=O)c3ccccc3n2C)c1=O               -2
32  O=c1cc(NCCCNC(CNCCc2ccccc2)c2cc(Br)cc(Br)c2)[nH]c2ccccc12 (stereo not drawn)                1
33  O=C(c1ccc(-c2cccc(-c3nc4ccc(F)cc4[nH]3)c2)cc1)N1CCCCC1CN1CCC(O)C1 (stereo not drawn)               -1
34  CC(C)N(Cc1ccccc1)C(=O)CN1C(=O)COc2ccc(S(=O)(=O)N3CCCCCC3)cc21               -3
35  CCN(CC)CCCN(CCCN(CC)CC)c1cc(C)nc(Nc2ccc3cc(Br)ccc3c2)n1                3
36  CC(C)(C)c1ccc2oc(=O)n(C3CCN(C(=O)c4ccc([N+](=O)[O-])o4)CC3)c2c1               -2
37  CCCCCCN(CCCCCC)CCCCNc1c2ccc(Cl)cc2nc2ccc(OC)cc12                1
38  COc1ccc(C#Cc2ccc(-c3c(C)[nH]c(C)c(Cl)c3=O)cc2)cc1                2
